target: MAP2K4 (human); experiment: KINOMEscan competition binding; settings: compound 10.0 µM
Quantity: kinase still bound, per cent of control (%)

Specify measured kinase still bound, per cent of control for Cc1cnc(-c2cnc(NCCNc3ccc(C#N)cn3)nc2-c2ccc(Cl)cc2Cl)[nH]1 . 70

Return kinase still bound, per cent of control for the following compound: O=C1Nc2cc(Br)ccc2/C1=C1/Nc2ccccc2/C1=N\O 67

Check the records and state kinase still bound, per cent of control for Cn1cc(C2=C(c3ccc(Cl)cc3Cl)C(=O)NC2=O)c2ccccc21 82

Please list kinase still bound, per cent of control recorded for the compound COc1ccc(CNC(=O)Nc2ncc([N+](=O)[O-])s2)cc1 79

====

test system: ABL1 (human), P00519 [F317I]; assay: KINOMEscan competition binding; conditions: compound 10.0 µM
Sequence (P00519 whole entry F317I, looked up): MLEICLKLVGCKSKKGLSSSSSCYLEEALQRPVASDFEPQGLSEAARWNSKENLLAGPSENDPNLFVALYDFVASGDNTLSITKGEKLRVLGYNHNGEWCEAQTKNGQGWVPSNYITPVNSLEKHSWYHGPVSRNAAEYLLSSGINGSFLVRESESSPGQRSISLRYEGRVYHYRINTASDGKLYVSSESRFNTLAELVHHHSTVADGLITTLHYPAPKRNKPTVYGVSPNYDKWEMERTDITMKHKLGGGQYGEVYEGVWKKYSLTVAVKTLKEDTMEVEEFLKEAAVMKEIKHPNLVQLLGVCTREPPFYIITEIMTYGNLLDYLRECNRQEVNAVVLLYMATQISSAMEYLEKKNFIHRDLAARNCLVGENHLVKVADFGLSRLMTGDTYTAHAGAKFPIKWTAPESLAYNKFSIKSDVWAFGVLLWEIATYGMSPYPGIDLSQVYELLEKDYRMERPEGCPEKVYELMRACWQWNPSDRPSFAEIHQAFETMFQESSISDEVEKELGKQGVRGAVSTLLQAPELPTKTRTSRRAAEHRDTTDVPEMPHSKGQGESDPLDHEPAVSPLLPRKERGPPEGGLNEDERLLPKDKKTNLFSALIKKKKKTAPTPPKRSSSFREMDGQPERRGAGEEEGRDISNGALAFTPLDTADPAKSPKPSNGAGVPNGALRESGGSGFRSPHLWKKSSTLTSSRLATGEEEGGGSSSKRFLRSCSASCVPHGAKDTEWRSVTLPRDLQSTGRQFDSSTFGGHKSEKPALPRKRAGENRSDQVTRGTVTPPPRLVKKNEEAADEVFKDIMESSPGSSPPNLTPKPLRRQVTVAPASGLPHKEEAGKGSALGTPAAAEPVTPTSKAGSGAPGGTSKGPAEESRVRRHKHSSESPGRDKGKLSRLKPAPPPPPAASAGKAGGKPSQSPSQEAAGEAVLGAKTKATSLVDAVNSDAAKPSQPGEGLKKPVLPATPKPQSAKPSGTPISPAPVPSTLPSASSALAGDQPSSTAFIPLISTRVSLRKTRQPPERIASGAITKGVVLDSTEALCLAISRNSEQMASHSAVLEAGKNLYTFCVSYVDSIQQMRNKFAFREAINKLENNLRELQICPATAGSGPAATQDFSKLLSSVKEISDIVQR
Quantity: kinase still bound, per cent of control (%)

# annotated cases, reported kinase still bound, per cent of control shown
Given COc1ccc(CNC(=O)Nc2ncc([N+](=O)[O-])s2)cc1 , report its kinase still bound, per cent of control on ABL1 (human), P00519 [F317I]. 100

Given Cn1cc(C2=C(c3ccc(Cl)cc3Cl)C(=O)NC2=O)c2ccccc21 , report its kinase still bound, per cent of control on ABL1 (human), P00519 [F317I]. 100

I = O=C1Nc2cc(Br)ccc2/C1=C1/Nc2ccccc2/C1=N\O
II = Cc1cnc(-c2cnc(NCCNc3ccc(C#N)cn3)nc2-c2ccc(Cl)cc2Cl)[nH]1
Field: lower kinase still bound, per cent of control | Options: I / II Please respond with the label that marks your chosen entry. I

====

molecular target: INSRR (human) (UniProt P14616); test: KINOMEscan competition binding; settings: compound 10.0 µM
Sequence (P14616 whole entry, looked up): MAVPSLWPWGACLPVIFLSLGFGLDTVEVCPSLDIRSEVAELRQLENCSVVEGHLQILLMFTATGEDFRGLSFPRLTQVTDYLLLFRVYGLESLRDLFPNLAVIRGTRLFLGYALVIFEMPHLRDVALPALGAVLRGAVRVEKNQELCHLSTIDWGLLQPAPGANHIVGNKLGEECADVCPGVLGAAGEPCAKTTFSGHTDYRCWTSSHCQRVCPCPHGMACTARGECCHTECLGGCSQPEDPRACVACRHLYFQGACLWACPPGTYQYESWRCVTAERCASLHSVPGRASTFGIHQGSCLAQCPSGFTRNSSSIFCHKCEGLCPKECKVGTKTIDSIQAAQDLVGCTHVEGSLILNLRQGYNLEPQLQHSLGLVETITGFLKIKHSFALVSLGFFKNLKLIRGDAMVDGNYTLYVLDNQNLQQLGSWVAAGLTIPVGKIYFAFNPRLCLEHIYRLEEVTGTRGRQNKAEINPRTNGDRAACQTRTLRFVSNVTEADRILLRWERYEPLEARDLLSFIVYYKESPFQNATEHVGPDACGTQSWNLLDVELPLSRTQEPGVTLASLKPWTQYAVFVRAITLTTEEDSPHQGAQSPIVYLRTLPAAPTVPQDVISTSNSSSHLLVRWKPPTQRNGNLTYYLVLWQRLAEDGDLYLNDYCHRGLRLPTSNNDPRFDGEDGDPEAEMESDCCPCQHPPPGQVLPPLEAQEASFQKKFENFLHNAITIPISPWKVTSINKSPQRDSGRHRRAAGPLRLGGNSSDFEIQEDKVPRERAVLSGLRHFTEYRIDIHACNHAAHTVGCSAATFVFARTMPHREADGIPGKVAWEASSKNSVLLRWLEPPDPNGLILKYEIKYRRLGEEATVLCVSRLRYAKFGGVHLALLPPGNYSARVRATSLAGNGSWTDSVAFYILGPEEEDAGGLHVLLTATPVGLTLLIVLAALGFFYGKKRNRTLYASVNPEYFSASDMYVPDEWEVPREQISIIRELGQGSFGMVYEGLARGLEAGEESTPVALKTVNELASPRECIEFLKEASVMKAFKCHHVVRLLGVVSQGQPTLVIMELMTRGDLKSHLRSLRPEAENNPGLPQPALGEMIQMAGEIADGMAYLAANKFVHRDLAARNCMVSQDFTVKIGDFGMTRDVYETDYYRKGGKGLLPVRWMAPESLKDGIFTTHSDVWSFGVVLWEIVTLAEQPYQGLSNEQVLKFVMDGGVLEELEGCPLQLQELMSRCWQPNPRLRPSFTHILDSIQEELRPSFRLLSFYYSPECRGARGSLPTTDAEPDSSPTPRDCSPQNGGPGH
Quantity: kinase still bound, per cent of control (%)

Illustrative cases are given below, each with its answer.
Tell us which kinase still bound, per cent of control value is on record for Cc1cnc(-c2cnc(NCCNc3ccc(C#N)cn3)nc2-c2ccc(Cl)cc2Cl)[nH]1 100

Supply reported kinase still bound, per cent of control belonging to this molecule: Cn1cc(C2=C(c3ccc(Cl)cc3Cl)C(=O)NC2=O)c2ccccc21 72

I = COc1ccc(CNC(=O)Nc2ncc([N+](=O)[O-])s2)cc1
II = O=C1Nc2cc(Br)ccc2/C1=C1/Nc2ccccc2/C1=N\O
From the items above, decide which of I and II has the lower kinase still bound, per cent of control reading. # answer = label of selected item II

====

biological target: EPHB2 (human) (UniProt P29323); assay: KINOMEscan competition binding; settings: compound 10.0 µM
Quantity: kinase still bound, per cent of control (%)

1 = O=C1Nc2cc(Br)ccc2/C1=C1/Nc2ccccc2/C1=N\O
2 = COc1ccc(CNC(=O)Nc2ncc([N+](=O)[O-])s2)cc1
For the two items 1 and 2 , which reports the higher kinase still bound, per cent of control value? Mark your answer with the label of the selected entry. 1
(1: 77%, 2: 15%)

====

molecular target: KDR (human); experiment: KINOMEscan competition binding; settings: compound 10.0 µM
Quantity: kinase still bound, per cent of control (%)

Return the recorded kinase still bound, per cent of control value; entry: Cn1cc(C2=C(c3ccc(Cl)cc3Cl)C(=O)NC2=O)c2ccccc21 100

I = Cc1cnc(-c2cnc(NCCNc3ccc(C#N)cn3)nc2-c2ccc(Cl)cc2Cl)[nH]1
II = COc1ccc(CNC(=O)Nc2ncc([N+](=O)[O-])s2)cc1
III = O=C1Nc2cc(Br)ccc2/C1=C1/Nc2ccccc2/C1=N\O
Sequence the entries by kinase still bound, per cent of control, beginning with the highest number. Quick reminder: the answer is the labels in the order asked. I, II, III
(I: 100%, II: 67%, III: 0.9%)

====

molecular target: MAST1 (human); assay: KINOMEscan competition binding; conditions: compound 10.0 µM
Quantity: kinase still bound, per cent of control (%)

Some molecules with known kinase still bound, per cent of control results, for comparison:
Report the value of kinase still bound, per cent of control obtained on MAST1 (human) for Cc1cnc(-c2cnc(NCCNc3ccc(C#N)cn3)nc2-c2ccc(Cl)cc2Cl)[nH]1 . 79

Provide measured kinase still bound, per cent of control on MAST1 (human) for COc1ccc(CNC(=O)Nc2ncc([N+](=O)[O-])s2)cc1 please. 98

1 = O=C1Nc2cc(Br)ccc2/C1=C1/Nc2ccccc2/C1=N\O
2 = Cn1cc(C2=C(c3ccc(Cl)cc3Cl)C(=O)NC2=O)c2ccccc21
Hi, I'm comparing two records. Which one has the lower kinase still bound, per cent of control, 1 or 2 ? Refer to your chosen item by its label in the answer. 1

====

target: LTK (human); assay: KINOMEscan competition binding; settings: compound 10.0 µM
Quantity: kinase still bound, per cent of control (%)

Enter measured kinase still bound, per cent of control, system LTK (human), for the molecule shown: Cc1cnc(-c2cnc(NCCNc3ccc(C#N)cn3)nc2-c2ccc(Cl)cc2Cl)[nH]1 100

Write kinase still bound, per cent of control of O=C1Nc2cc(Br)ccc2/C1=C1/Nc2ccccc2/C1=N\O ; system used: LTK (human) 100

Fill: kinase still bound, per cent of control (LTK (human)) for this molecule Cn1cc(C2=C(c3ccc(Cl)cc3Cl)C(=O)NC2=O)c2ccccc21 100

Give measured kinase still bound, per cent of control for COc1ccc(CNC(=O)Nc2ncc([N+](=O)[O-])s2)cc1 (LTK (human)). 100

====

target: PRPF4B (human) (UniProt Q13523); assay: KINOMEscan competition binding; conditions: compound 10.0 µM
Quantity: kinase still bound, per cent of control (%)

Example entries and their recorded answers appear below.
Look up and report measured kinase still bound, per cent of control for this entry: Cc1cnc(-c2cnc(NCCNc3ccc(C#N)cn3)nc2-c2ccc(Cl)cc2Cl)[nH]1 100

Fill in kinase still bound, per cent of control for record Cn1cc(C2=C(c3ccc(Cl)cc3Cl)C(=O)NC2=O)c2ccccc21 100

1 = COc1ccc(CNC(=O)Nc2ncc([N+](=O)[O-])s2)cc1
2 = O=C1Nc2cc(Br)ccc2/C1=C1/Nc2ccccc2/C1=N\O
Given the two records 1 and 2 , choose the one whose kinase still bound, per cent of control value is lower. Your choice should be expressed through its label. 2

====

molecular target: STK17B (human); assay: KINOMEscan competition binding; conditions: compound 10.0 µM
Quantity: kinase still bound, per cent of control (%)

Recall the reported kinase still bound, per cent of control of Cn1cc(C2=C(c3ccc(Cl)cc3Cl)C(=O)NC2=O)c2ccccc21 when tested on STK17B (human). 100

1 = COc1ccc(CNC(=O)Nc2ncc([N+](=O)[O-])s2)cc1
2 = O=C1Nc2cc(Br)ccc2/C1=C1/Nc2ccccc2/C1=N\O
Returns: the label, 1 or 2 , whose recorded kinase still bound, per cent of control is the lower number. Record your answer as the label of the chosen record. 2
(2: 0%, 1: 74%)

====

molecular target: MARK1 (human) (UniProt Q9P0L2); assay: KINOMEscan competition binding; conditions: compound 10.0 µM
Sequence (Q9P0L2 whole entry, looked up): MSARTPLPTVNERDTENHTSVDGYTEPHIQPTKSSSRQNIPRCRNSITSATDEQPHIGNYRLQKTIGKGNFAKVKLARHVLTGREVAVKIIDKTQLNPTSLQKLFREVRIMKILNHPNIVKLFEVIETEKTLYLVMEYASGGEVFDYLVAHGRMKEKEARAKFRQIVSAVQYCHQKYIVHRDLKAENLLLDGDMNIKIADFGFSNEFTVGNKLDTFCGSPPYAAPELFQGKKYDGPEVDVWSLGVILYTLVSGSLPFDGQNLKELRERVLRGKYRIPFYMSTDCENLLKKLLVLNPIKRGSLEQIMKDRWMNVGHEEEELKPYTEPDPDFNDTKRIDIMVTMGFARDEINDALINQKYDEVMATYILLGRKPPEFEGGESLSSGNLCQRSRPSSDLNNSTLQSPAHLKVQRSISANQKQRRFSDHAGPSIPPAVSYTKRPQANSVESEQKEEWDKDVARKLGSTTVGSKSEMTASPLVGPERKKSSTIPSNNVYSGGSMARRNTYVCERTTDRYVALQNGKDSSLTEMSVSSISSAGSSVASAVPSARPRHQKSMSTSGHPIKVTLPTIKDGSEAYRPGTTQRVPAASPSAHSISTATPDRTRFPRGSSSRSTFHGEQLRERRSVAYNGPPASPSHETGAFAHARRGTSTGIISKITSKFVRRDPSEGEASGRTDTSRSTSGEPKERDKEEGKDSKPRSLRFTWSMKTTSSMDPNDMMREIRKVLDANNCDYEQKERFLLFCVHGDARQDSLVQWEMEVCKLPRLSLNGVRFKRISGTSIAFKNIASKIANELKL
Quantity: kinase still bound, per cent of control (%)

Below, 2 compounds whose answers are already recorded.
Identify measured kinase still bound, per cent of control associated with COc1ccc(CNC(=O)Nc2ncc([N+](=O)[O-])s2)cc1 100

Specify measured kinase still bound, per cent of control for Cc1cnc(-c2cnc(NCCNc3ccc(C#N)cn3)nc2-c2ccc(Cl)cc2Cl)[nH]1 . 91

P = Cn1cc(C2=C(c3ccc(Cl)cc3Cl)C(=O)NC2=O)c2ccccc21
Q = O=C1Nc2cc(Br)ccc2/C1=C1/Nc2ccccc2/C1=N\O
For the pair P and Q , which entry has the numerically smaller recorded kinase still bound, per cent of control? State the label of the item chosen. Q

====

molecular target: PAK4 (human) (UniProt O96013); experiment: KINOMEscan competition binding; settings: compound 10.0 µM
Sequence (O96013 whole entry, looked up): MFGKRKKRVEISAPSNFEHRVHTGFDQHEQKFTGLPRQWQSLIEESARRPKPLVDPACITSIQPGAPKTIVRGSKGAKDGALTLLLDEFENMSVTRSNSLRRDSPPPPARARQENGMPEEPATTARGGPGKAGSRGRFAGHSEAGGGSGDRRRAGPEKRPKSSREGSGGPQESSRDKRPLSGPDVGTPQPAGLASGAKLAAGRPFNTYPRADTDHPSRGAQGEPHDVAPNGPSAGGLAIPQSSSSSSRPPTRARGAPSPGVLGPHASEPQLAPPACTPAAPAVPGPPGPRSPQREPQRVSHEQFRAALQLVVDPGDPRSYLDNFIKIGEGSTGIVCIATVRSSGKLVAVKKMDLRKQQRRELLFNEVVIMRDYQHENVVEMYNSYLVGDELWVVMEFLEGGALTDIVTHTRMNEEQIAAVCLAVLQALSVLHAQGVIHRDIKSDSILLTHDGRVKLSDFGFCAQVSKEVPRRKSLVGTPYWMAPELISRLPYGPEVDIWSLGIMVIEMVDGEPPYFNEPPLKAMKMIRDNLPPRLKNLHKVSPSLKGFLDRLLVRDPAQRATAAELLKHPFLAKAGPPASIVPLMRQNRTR
Quantity: kinase still bound, per cent of control (%)

Below, each entry is followed by its recorded kinase still bound, per cent of control result.
Give kinase still bound, per cent of control for the following compound: Cn1cc(C2=C(c3ccc(Cl)cc3Cl)C(=O)NC2=O)c2ccccc21 82

Answer with the recorded kinase still bound, per cent of control of COc1ccc(CNC(=O)Nc2ncc([N+](=O)[O-])s2)cc1 only. 74

a = Cc1cnc(-c2cnc(NCCNc3ccc(C#N)cn3)nc2-c2ccc(Cl)cc2Cl)[nH]1
b = O=C1Nc2cc(Br)ccc2/C1=C1/Nc2ccccc2/C1=N\O
For this pair, a and b , which shows a numerically higher kinase still bound, per cent of control? In your reply, give the label of the chosen option. a
(a: 100%, b: 21%)

====

molecular target: MAPK3 (human) (UniProt P27361); assay: KINOMEscan competition binding; conditions: compound 10.0 µM
Sequence (P27361 whole entry, looked up): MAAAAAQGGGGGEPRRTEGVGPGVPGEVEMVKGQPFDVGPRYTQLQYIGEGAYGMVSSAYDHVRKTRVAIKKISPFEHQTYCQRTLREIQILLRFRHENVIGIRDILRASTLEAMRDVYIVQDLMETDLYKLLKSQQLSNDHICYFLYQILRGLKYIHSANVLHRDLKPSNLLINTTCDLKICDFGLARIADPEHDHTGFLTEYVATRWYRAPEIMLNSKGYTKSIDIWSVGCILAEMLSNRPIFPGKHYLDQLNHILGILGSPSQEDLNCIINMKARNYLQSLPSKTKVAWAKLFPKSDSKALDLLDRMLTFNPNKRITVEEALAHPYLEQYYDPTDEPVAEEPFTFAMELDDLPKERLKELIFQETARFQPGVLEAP
Quantity: kinase still bound, per cent of control (%)

Answer briefly: kinase still bound, per cent of control recorded on MAPK3 (human) (UniProt P27361) for O=C1Nc2cc(Br)ccc2/C1=C1/Nc2ccccc2/C1=N\O 100

Give kinase still bound, per cent of control for COc1ccc(CNC(=O)Nc2ncc([N+](=O)[O-])s2)cc1 tested on MAPK3 (human) (UniProt P27361). 100

For MAPK3 (human) (UniProt P27361), give the measured kinase still bound, per cent of control of the entry Cn1cc(C2=C(c3ccc(Cl)cc3Cl)C(=O)NC2=O)c2ccccc21 99

Tell me its kinase still bound, per cent of control on MAPK3 (human) (UniProt P27361): Cc1cnc(-c2cnc(NCCNc3ccc(C#N)cn3)nc2-c2ccc(Cl)cc2Cl)[nH]1 100
